- test: BSK_CASM3C_Proliferation: Cell Proliferation Assessment in the BioMAP Diversity Plus: CASM3C Assay (AID 2283047);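 note: sulforhodamine B total protein stain as relative cell number at 560 nm; sub-confluent cells exposed 48 h before staining; fitted both ways against DMSO so gain or loss of cell number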
- assay_setup: primary human coronary artery smooth muscle cells
The source made the active and inactive calls. Rule for the calls: active = hit-call score of the fitted dose curve at least 0.9, where 1 is the maximum; inactive = score below 0.9.
Thanks in advance; please answer with one of these: active, inactive

Reference set, count: 3
Enquiry: Assay outcome for CCOC(=O)c1ccc(C2CCC(NC[C@H](O)COc3ccc(O)c(NS(C)(=O)=O)c3)CC2)cc1 (some centres undefined) : what was it?
Return: active

Enquiry: Field: outcome | Entry: `CC(C)CCCCCCOC(=O)c1ccc(C(=O)OCCCCCCC(C)C)c(C(=O)OCCCCCCC(C)C)c1`
Return: inactive

Enquiry: Please share the test call associated with CC(C)CC(C)(O)C#CC(C)(O)CC(C)C (centres undefined) .
Return: inactive

---
Enquiry: Hi, sorry to bother you, what did the test record for `O=C1CCCCCN1` ?
Return: inactive
